Molecular target: DNA polymerase beta (Homo sapiens) (UniProt P06746)
Assay: qHTS Assay for Inhibitors of DNA Polymerase Beta
Details: Pol beta primer extension/strand displacement, fluorescence kinetic; series mostly up to 114 µM
Hit rate of the full screen: of about 340,000 compounds, about 4,500 (1.3%) were called active. Another 5% or so got no clear call; they are omitted. The call rests on the fitted dose curve; in most records, active means well fitted inhibition curve with a large enough effect; inconclusive means small, poorly fitted or top-dose-only effect, or another doubt; inactive means no such curve, though single readings can be large or run the other way. The entries come from a sample that favours actives as a whole.
# output must be one of active, inactive

Reference set (4 entries):
>>> print(df.to_string())
                                   compound                            assayed_target  label_class
0  Cc1cc(C)cc(N(CC(=O)NCCSCc2ccco2)S(C)(=O)=O)c1  DNA polymerase beta (Homo sapiens) (UniProt P06746)     inactive
1  CCS(=O)(=O)C1=NSC2=NC(=O)/C(=C\c3ccc(OS(=O)(=O)c4ccccc4)cc3)C(=N)N21  DNA polymerase beta (Homo sapiens) (UniProt P06746)     inactive
2  COc1ccccc1N1CC(C(=O)Nc2nnc(SCC(=O)NC(C)C)s2)CC1=O (stereo not drawn)  DNA polymerase beta (Homo sapiens) (UniProt P06746)     inactive
3  COc1cc(OC)c(OC)cc1/C=C/c1nc2ccccc2c(=O)n1-c1ccc(Br)c(C)c1  DNA polymerase beta (Homo sapiens) (UniProt P06746)     inactive

Challenge: What outcome does the record of this test show for CS(=O)(=O)N(CC(=O)NCc1ccco1)c1ccc2c(c1)OCO2 ?
Response given: active

Challenge: Field entry: COc1ccc(/C=C2/SC(=O)N(CCCCCC(=O)Nc3ccccc3C(=O)O)C2=S)cc1
Response given: inactive

Challenge: Field entry: CCC(CC)C(=O)Nc1ccc(S(=O)(=O)Nc2nccs2)cc1
Response given: inactive

Challenge: Field entry: Cc1c(C(=O)N2CCCC2)oc2c1-c1nn(CC(=O)NCc3ccc(OC(C)C)cc3)cc1CC2
Response given: inactive

Challenge: Field entry: Cc1ccc(C(=O)NNc2ncnc3ccccc23)cc1
Response given: inactive

Challenge: Field entry: COc1ccc(C(=O)NCC(c2ccc(N(C)C)cc2)N2CCc3ccccc32)c(OC)c1 (stereo not drawn)
Response given: inactive

Challenge: Field entry: CN1C(=O)/C(=C/c2ccco2)SC1=Nc1cccc(C(=O)O)c1
Response given: active

Challenge: Field entry: O=C(C1CCC1)N1CCN(c2ccccc2)CC1
Response given: inactive

Challenge: Field entry: CC1CCN(S(=O)(=O)c2ccc3c(ccn3CCC(=O)NCc3ccc(N(C)C)cc3)c2)CC1
Response given: inactive

Challenge: Field entry: CCC(C)Nc1oc(-c2ccc(COc3ccc(Cl)cc3)o2)nc1C#N (stereo not drawn)
Response given: inactive

Challenge: Field entry: NC(=O)CCN1CCN(S(=O)(=O)/C=C/c2ccccc2)CC1
Response given: inactive

Challenge: Field entry: Cc1ccc(/C=C(\C#N)C(=O)Nc2cc(C)ccc2C)cc1
Response given: inactive

Challenge: Field entry: Cc1cccc(NC(=O)/C(=C\c2ccco2)NC(=O)c2ccccc2)c1
Response given: inactive

Challenge: Field entry: O=S(=O)(NCC1OCCc2ccccc21)c1ccccc1 (stereo not drawn)
Response given: inactive

Challenge: Field entry: CCn1cc(C(=O)NCCc2ccccc2)c(=O)c2cc(S(=O)(=O)N3CCCCCC3)ccc21
Response given: inactive

Challenge: Field entry: COC(=O)c1ccc2c(c1)N(CC(=O)Nc1ccc(C)c(C)c1)C(=O)c1ccccc1S2
Response given: inactive

Challenge: Field entry: CSc1cccc(NC(=O)CN2C(=O)CCc3cc(S(=O)(=O)N4CCCCC4)ccc32)c1
Response given: inactive

Challenge: Field entry: O=C(NNC(=O)c1cc2c(s1)CCCC2)c1ccccc1
Response given: inactive

These data points were gathered from PubChem BioAssay AID485314.
